The values you see were collected from paper PMC9574860.

Recorded Inhibition % by entry
molecular target: Parkinson's disease protein 7 (PARK7/DJ1) (human, UniProt Q99497); assay: primary screen, percent inhibition; read as competition with a fluorescent probe by fluorescence polarization; higher = more effect of the substance; settings: 100 µM
Sequence (Q99497 whole entry, looked up): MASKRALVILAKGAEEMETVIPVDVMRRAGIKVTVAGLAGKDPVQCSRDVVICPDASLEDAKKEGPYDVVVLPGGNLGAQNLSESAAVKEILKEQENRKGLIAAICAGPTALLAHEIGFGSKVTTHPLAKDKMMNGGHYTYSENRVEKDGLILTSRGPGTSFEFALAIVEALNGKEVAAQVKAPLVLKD
The campaign covered roughly 7,900 compounds. About 400 (5.1%) showed an effect of 50% or more. For the sample, strong results were picked, then their nearest neighbours and some compounds at random.
measure: Inhibition % (%)

> print(dat)
                                   compound                              assay.target       measure  reading.unit  observed.value
1                              COc1ccccc1CS  Parkinson's disease protein 7 (PARK7/DJ1) (human, UniProt Q99497)  Inhibition %             %            1.46
2  COC(=O)C1CC(S(=O)(=O)F)CN1C(=O)C1CCOCC1 (stereo not drawn)  Parkinson's disease protein 7 (PARK7/DJ1) (human, UniProt Q99497)  Inhibition %             %            9.64
3  CC(C)(C)OC(=O)N1CCCC(S(=O)(=O)F)C1 (stereo not drawn)  Parkinson's disease protein 7 (PARK7/DJ1) (human, UniProt Q99497)  Inhibition %             %            10.7
4  Cl.N[C@@H]1CC[C@H](CS(=O)(=O)F)C1 (racemic)  Parkinson's disease protein 7 (PARK7/DJ1) (human, UniProt Q99497)  Inhibition %             %            22.9
5  O=C(N[C@H]1CC[C@@H](CS(=O)(=O)F)C1)C1CCOCC1 (racemic)  Parkinson's disease protein 7 (PARK7/DJ1) (human, UniProt Q99497)  Inhibition %             %            77.4
6                        O=C(O)c1ccc(CS)cc1  Parkinson's disease protein 7 (PARK7/DJ1) (human, UniProt Q99497)  Inhibition %             %            17.3
